Just for reference, ChEMBL document CHEMBL1201862 is where these values come from.

Entries and their GI50
Tested on: U-251
Experiment: NCI tumour cell line growth inhibition, 48 h
Calls of active or inactive are those of the source. Cut-off read from the data, not from the text of the source: active = GI50 up to about 1.1 µM and inactive = higher.

Some entries whose results are on file:
{"compound": "CSc1nc(SC)c2c(CO)c(Br)n(Cc3ccccc3)c2n1", "recordedValue": "12.6 µM (inactive)"}
{"compound": "CC[C@@]12N=C(N(C)C)C[C@]1(O)ON=C2C", "recordedValue": "> 100 µM (inactive)"}
{"compound": "Cc1nc(Nc2ccc(Cl)cc2)sc1C(=O)NNC(=O)C(=O)NN", "recordedValue": "19.1 µM (inactive)"}
{"compound": "Cc1ccc(OC(=O)N2C/C(=C\\c3ccccc3)C(=O)/C(=C/c3ccccc3)C2)cc1", "recordedValue": "9.25 µM (inactive)"}
{"compound": "[O-][Cl+3]([O-])([O-])[O-].[O-][Cl+3]([O-])([O-])[O-].c1ccn2c(N3CCCC3)[n+]3c4ccccc4n4c(N5CCCC5)[n+]5ccccc5c4c3c2c1", "recordedValue": "28.2 µM (inactive)"}
{"compound": "C=CCOc1ccc(C2(c3ccc(OCC=C)cc3)C(=O)Nc3ccccc32)cc1", "recordedValue": "> 10 µM (inactive)"}

Enquiry: // query GI50 value for entry O=[N+]([O-])c1ccc2nc(-c3ccccn3)c(-c3ccccn3)nc2c1
Return: > 100 µM (inactive)
